Each recorded value in this set is attributed to patent US5783597A.

Overview of reported IC50 across a group of compounds:
# tested_system: 5-lipoxygenase (5-LO) (Rattus norvegicus, UniProt P12527)
# Construct: endogenous in cells; host or cells: intact RBL-1 (rat basophilic leukemia) cells, stimulated with calcium ionophore A23187
# Sequence (P12527 1-673): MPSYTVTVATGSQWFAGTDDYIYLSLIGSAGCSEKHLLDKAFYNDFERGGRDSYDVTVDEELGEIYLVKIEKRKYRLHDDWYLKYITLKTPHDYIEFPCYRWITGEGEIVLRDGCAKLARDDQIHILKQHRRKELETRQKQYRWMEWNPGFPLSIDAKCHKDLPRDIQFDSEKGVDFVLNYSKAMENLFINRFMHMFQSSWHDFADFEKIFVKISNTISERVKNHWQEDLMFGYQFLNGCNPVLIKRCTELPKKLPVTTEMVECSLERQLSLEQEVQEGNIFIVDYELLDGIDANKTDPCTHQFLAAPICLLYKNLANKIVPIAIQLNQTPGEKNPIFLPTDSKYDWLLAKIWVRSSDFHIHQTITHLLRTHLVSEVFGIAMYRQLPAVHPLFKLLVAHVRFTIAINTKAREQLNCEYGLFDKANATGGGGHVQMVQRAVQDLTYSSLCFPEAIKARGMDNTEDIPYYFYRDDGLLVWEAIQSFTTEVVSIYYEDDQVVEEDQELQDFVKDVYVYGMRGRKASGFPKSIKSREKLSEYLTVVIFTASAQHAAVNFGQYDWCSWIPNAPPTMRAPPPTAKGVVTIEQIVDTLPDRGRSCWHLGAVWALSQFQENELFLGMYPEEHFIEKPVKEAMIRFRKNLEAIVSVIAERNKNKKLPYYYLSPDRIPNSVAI
# protocol_summary: RBL-1 cell 5-lipoxygenase and cyclooxygenase - Homogenate (Procedure I)
# Assay type: biochemical
# experimental_context: RBL-1 homogenate supernatant, 5-HETE; read-out: Procedure I (5-LO) Homog. IC50
Supply the numeric figure in nM, leaving out any unit text.

Record excerpt, results attached:
>>> measured_number("CS(=O)(=O)Nc1ccc(Oc2ccccc2)s1")
70
>>> measured_number("CS(=O)(=O)Nc1ccc(SC2CCCCC2)s1")
70

Problem: Fill blank: measured IC50 of the compound CS(=O)(=O)Nc1ccc(Oc2cccc(C(F)(F)F)c2)s1 is ____.
Result: 60

---

# tested_system: 5-lipoxygenase (5-LO) (Rattus norvegicus)
# Construct: endogenous in cells; host or cells: intact RBL-1 (rat basophilic leukemia) cells, stimulated with calcium ionophore A23187
# protocol_summary: RBL-1 cell 5-lipoxygenase and cyclooxygenase - Whole cells (Procedure II)
# Assay type: cell-based
# experimental_context: intact RBL-1 cells, 5-HETE; read-out: Procedure II (5-LO) Wh Cell IC50
experimental_endpoint: pIC50
Give only the number. pIC50 is defined as minus log10 of concentration in molar units.

Record excerpt, results attached:
>>> measured_number("CS(=O)(=O)Nc1ccc(Oc2ccc(F)cc2F)s1")
6.14
>>> measured_number("CS(=O)(=O)Nc1ccc(Oc2cccc(Cl)c2)s1")
6.30
>>> measured_number("CCCCS(=O)(=O)Nc1ccc(Oc2ccccc2)s1")
5.95

Problem: Fill blank: measured pIC50 of the compound CCCCCCCCS(=O)(=O)Nc1ccc(Oc2ccccc2)s1 is ____.
Result: 5.54

Problem: Please give the result for Cc1cccc(Oc2ccc(NS(C)(=O)=O)s2)c1 too.
Result: 6.51

Problem: Please give the result for O=S(=O)(Nc1ccc(Oc2ccccc2)s1)c1ccccc1 too.
Result: 6.05

Problem: Please give the result for CS(=O)(=O)Nc1ccc(Oc2ccc(F)c(Cl)c2)s1 too.
Result: 6.05

Problem: Please give the result for CC(C)c1cccc(Oc2ccc(NS(C)(=O)=O)s2)c1 too.
Result: 5.33

---

Overview of reported IC50 across a group of compounds:
# tested_system: 5-lipoxygenase (5-LO) (Rattus norvegicus, UniProt P12527)
# Construct: endogenous in cells; host or cells: intact RBL-1 (rat basophilic leukemia) cells, stimulated with calcium ionophore A23187
# Sequence (P12527 1-673): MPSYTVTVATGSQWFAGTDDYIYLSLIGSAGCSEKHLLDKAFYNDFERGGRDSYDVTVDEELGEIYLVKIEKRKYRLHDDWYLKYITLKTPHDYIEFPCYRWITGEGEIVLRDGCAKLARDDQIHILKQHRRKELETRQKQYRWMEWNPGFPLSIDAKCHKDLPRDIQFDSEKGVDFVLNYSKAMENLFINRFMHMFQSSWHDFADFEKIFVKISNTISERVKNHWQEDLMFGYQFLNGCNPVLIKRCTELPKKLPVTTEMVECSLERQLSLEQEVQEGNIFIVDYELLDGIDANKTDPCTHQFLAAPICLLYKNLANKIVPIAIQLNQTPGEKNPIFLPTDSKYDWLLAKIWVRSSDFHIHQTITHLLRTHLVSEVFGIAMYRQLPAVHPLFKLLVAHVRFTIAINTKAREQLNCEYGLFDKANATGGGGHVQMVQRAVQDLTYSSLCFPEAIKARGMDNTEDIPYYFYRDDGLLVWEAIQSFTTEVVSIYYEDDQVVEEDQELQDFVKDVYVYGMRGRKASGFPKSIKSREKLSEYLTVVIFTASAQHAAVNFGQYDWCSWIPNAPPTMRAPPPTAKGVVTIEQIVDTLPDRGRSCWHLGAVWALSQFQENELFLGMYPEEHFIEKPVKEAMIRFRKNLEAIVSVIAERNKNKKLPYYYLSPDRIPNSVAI
# protocol_summary: RBL-1 cell 5-lipoxygenase and cyclooxygenase - Whole cells (Procedure II)
# Type: cell-based
# experimental_context: intact RBL-1 cells, 5-HETE; read-out: Procedure II (5-LO) Wh Cell IC50
Supply the numeric figure in nM, leaving out any unit text.

Record excerpt, results attached:
>>> measured_number("CS(=O)(=O)Nc1ccc(Cc2ccccc2)s1 [Example 31, N-(5-Benzylthien-2-yl)methanesulfonamide]")
380
>>> measured_number("CC(C)S(=O)(=O)Nc1ccc(Oc2ccccc2)s1")
1040

Problem: Fill blank: measured IC50 of the compound CS(=O)(=O)Nc1ccc(SC2CCCCC2)s1 is ____.
Result: 2390

Problem: Please give the result for Cc1cccc(Oc2ccc(NS(C)(=O)=O)s2)c1C too.
Result: 660

Problem: Please give the result for CS(=O)(=O)Nc1ccc(Oc2ccc3ccccc3c2)s1 too.
Result: 770
